Assay: qHTS of pediatric cancer cell lines to identify multiple opportunities for drug repurposing: Primary screen for Rh30 cells (AID 1347107); further: nearly all actives have a fitted effect of over 75% in size; further: potency means the concentration at half of the fitted maximal effect
Details: Rh30 rhabdomyosarcoma viability, CellTiter-Glo luminescence, 48 h; series mostly up to 46 µM
Inconclusive results are not listed. Calls of active or inactive are those of the source. The call rests on the fitted dose curve; in most records, active means well fitted cell-killing curve with a large enough effect; inconclusive means small, poorly fitted or top-dose-only effect; inactive means no such curve, though single readings can be large or run the other way.

compound: CNc1nccc(-c2cccnc2Oc2cc(C(=O)Nc3cccc(C(F)(F)F)c3)ccc2C)n1
Potency: inactive

compound: COc1cccc2c(NCc3ccccc3)nc(-n3c(N)nc4ccccc43)nc12
Potency: 14.8 µM (active)

compound: CNC(=O)c1nn(C)c2c1C(C)(C)Cc1cnc(Nc3ccc(N4CCN(C)CC4)cc3)nc1-2
Potency: inactive

compound: C#Cc1cccc(Nc2ncnc3cc(OC)c(OCCCCCCC(=O)NO)cc23)c1
Potency: 11.8 µM (active)

compound: O=c1[nH]c(=O)n(C2CCCO2)cc1F (centres undefined)
Potency: inactive

compound: CC(C)(C)c1cc(NC(=O)Nc2ccc(-c3cn4c(n3)sc3cc(OCCN5CCOCC5)ccc34)cc2)no1
Potency: inactive

compound: COc1ccc(-n2nc(C(N)=O)c3c2C(=O)N(c2ccc(N4CCCCC4=O)cc2)CC3)cc1
Potency: inactive

compound: C=CC(=O)Nc1cc2c(Nc3ccc(F)c(Cl)c3)ncnc2cc1C#CC(C)(C)N1CCN(C)CC1
Potency: 11.8 µM (active)

compound: CC=CC1=C(C(=O)O)N2C(=O)[C@H](NC(=O)[C@H](N)c3ccc(O)cc3)[C@@H]2SC1
Potency: inactive
